assay: LC50 in cell culture of HT-29; format: cell-based; settings: human, HT-29 cells; HT-29 cell culture
QUANTITY NAME: CC50 (µM)
One number for each entry, in µM.

Lab note: measured CC50 of O=C(O)c1ccc(/C=C/[N+](=O)[O-])cc1 [BANA, (E)-4-(2-nitrovinyl) benzoic acid] was 80

---

test: LC50 in cell culture of SOD1^G93A adult microglia; type: cell-based; conditions: rat
QUANTITY NAME: CC50 (µM)
One number for each entry, in µM.

CC50 measured on O=C(O)c1ccc(/C=C/[N+](=O)[O-])cc1 [BANA, (E)-4-(2-nitrovinyl) benzoic acid] = 30
